- Tested on: PBMC cells obtained from mite allergic patients and non-allergics
- assay.info: Ex vivo stimulation of PBMC: cytokine production (IFN-gamma, IL-9, IL-10, IL-17, IL-31)
- Format: cell-based, human
- reported.conditions: non-allergic individuals; IL-17
observation.type: % non-allergic individuals with cytokine production in ex-vivo T cell assay IL-17

• A001: house dust mite protein; SEQ ID NO: 13 (Der f), 14 (Der p); recombinant test protein (protein) KKSPDCDIERPIRECLKDGLLRYSSGQKINQFPDTIQDLNRACEELKKSETCARTFIDTCTESSYEKRSLDSLLDGIQRVMKRLCRSQTKKEKLLENVGCANSVVQDTKQCLKNYRMLVFAANKLDNKNKIMRILCCKSRKVAPCIGEAMKAKGTAVCSAKNIDYFKDVHQNIKQEMTAVVCSDFERDQCENVDVPNISESEYKDQNIFNPLRDLYKKVILG = 50%

IN: Which % non-allergic individuals with cytokine production in ex-vivo T cell assay IL-17 reading was recorded for the molecule A022: house dust mite protein; SEQ ID NO: 19 (Der f), 20 (Der p), 317 (Blo t) (protein) NWQMVWQDEFNGGHLDQNHWEFETGGGGWGNNELEFYTANRSQNVRVENGHLVIDVRVESYGGRDFTSGRIHSKQAWAYGKFEARARLPSGHHLWPAIWMFPRDSKYGPWAASGEIDIMEYRGDVHDKIEGTIHYGGQWPNNIYTGSGPHHFNVDFSKDFHNFAVEWDTKEIRWYMDGNKYFSVNIDRNMWSGKGNNPYNKNGQPFDQPFRWILNVAVGGNFFGPGPYVTPDQARHWQKHTMEIDYVRVYQWR ?
OUT: 0%
